# credit: PubChem BioAssay (NCI)

- Tested on: OVCAR-4 ovarian
- experimental details: NCI-60 one-dose screen, 48 h (100 = growth as untreated, 0 = no growth, -100 = all killed)
- condition label: 10 µM unless noted
This is part of a sample that, as a whole, favours compounds with a hit. Of some 83,000 tested, about 20% had one in any assay.
Recorded growth, one value per entry.
measured property: growth (%)

mol=Cc1ccc(-c2c3c(N)c4c(nc3nc3c2c(C)nn3-c2ccccc2)CCCC4)cc1 numeric_readout=96
mol=COc1ccc(S(=O)(=O)ON=C2C=C(C)C(=O)C(C)=C2)cc1 numeric_readout=55.4
mol=CN(C)c1ccc(/C=C(\C#N)c2cc3ccccc3n2C)cc1 numeric_readout=40.3
